Molecular target: Dual specificity tyrosine-phosphorylation-regulated kinase 1A (Homo sapiens, UniProt Q13627)
Assay: Inhibition of recombinant DYRK1A (unknown origin) using Ser/Thr 18 peptide as substrate incubated for 1 hr in presence of ATP by FRET assay
pEC50: −log10 of the molar value.
Below, each entry is listed alongside its reported pEC50.
endpointLabel: pEC50

CC(C)(C)C(=O)Nc1cncc(-c2ccc3[nH]nc(-c4nc5c(-c6ccc(F)s6)ccnc5[nH]4)c3c2)c1: 7.01
O=C(Nc1cncc(-c2cc3c(-c4cc5c(-c6cccnc6)cccc5[nH]4)n[nH]c3cn2)c1)C1CC1: 7.47
CCNCc1cncc(-c2ccc3[nH]nc(-c4cc5ccccc5[nH]4)c3c2)c1: 7.96
CCNCc1cncc(-c2ccc3[nH]nc(-c4cc5c(-c6cc(F)cc(CNS(C)(=O)=O)c6)cncc5[nH]4)c3c2)c1: 7.68
CC(C)Oc1cncc(C(=O)Nc2c[nH]nc2C(=O)Nc2ccc(OC3CCN(C)CC3)nc2)c1: 8.40
O=C(Nc1cncc(-c2ccc3[nH]nc(-c4nc5c(-c6ccc(Cl)s6)cncc5[nH]4)c3n2)c1)C1CCC1: 7.14
Cc1ncc(C(=O)Nc2cc3cc(-c4cnc(C)n4C)ccc3cn2)s1: 9.00
CC(C)Oc1ccc(NC(=O)c2n[nH]c3ccc(-c4cncc(CN5CCCCC5)c4)cc23)cn1: 7.77
COc1cncc(C(=O)Nc2c[nH]nc2C(=O)Nc2ccc(N3CCNCC3)nc2)c1: 8.15
O=C(Nc1c[nH]nc1C(=O)Nc1cccnc1)c1cccnc1: 7.92
Cc1ncc(-c2ccc3cnc(NC(=O)C4(F)CC4)cc3c2)n1C: 8.22
FC1(F)CCN(Cc2cncc(-c3ccc4[nH]nc(-c5cc6c(-c7cccnc7)cncc6[nH]5)c4n3)c2)C1: 7.52
O=C(Nc1c[nH]nc1C(=O)Nc1ccc(N2CCCC2)nc1)c1cncc(OC2CCNCC2)c1: 8.05
FC1(F)CCN(Cc2cncc(-c3cnc4[nH]nc(-c5nc6c(-c7ccoc7)nccc6[nH]5)c4c3)c2)C1: 8.00
CC(C)C(=O)Nc1cncc(-c2ccc3[nH]nc(-c4cc5c(N6CCN(C)CC6)nccc5[nH]4)c3c2)c1: 7.82
FC1(F)CCN(Cc2cncc(-c3cc4c(-c5nc6c(N7CCCCC7)cncc6[nH]5)n[nH]c4cn3)c2)C1: 8.22

====

Biological target: Dual specificity tyrosine-phosphorylation-regulated kinase 1A (Homo sapiens, UniProt Q13627)
Assay: Inhibition of recombinant DYRK1A (unknown origin) using Ser/Thr 18 peptide as substrate incubated for 1 hr in presence of ATP by FRET assay
pEC50: −log10 of the molar value.
Entry flag: YES if pEC50 reaches 8; NO if it does not.

CN(C)CCOc1cncc(-c2cc3c(-c4cc5c(-c6ccc(F)cc6)nccc5[nH]4)n[nH]c3cn2)c1: NO
c1cncc(-c2ccc3[nH]nc(-c4nc5c(-c6ccoc6)cncc5[nH]4)c3c2)c1: YES
O=C(N[C@H]1C[C@@H]1c1ccccc1)c1n[nH]c2ccc(-c3cccnc3)cc12: YES
Cc1cn(-c2ccnc3[nH]c(-c4n[nH]c5ccc(-c6cncc(NC(=O)C(C)(C)C)c6)nc45)nc23)cn1: NO
CN1CCN(c2ccc(NC(=O)c3n[nH]c4ccc(-c5cncc(NC(=O)c6c(F)cccc6F)c5)cc34)cn2)CC1: YES
Fc1ccc(-c2cccc3[nH]c(-c4n[nH]c5ncc(-c6cncc(CN7CCCCC7)c6)cc45)cc23)cc1: NO
Fc1ccccc1-c1nccc2[nH]c(-c3n[nH]c4cnc(-c5cncc(CN6CCCC6)c5)cc34)cc12: NO
Clc1ccc(-c2cncc3[nH]c(-c4n[nH]c5ccc(-c6cncc(CN7CCCC7)c6)nc45)nc23)s1: NO
CN(C)Cc1cncc(-c2ccc3[nH]nc(-c4cc5cccnc5[nH]4)c3n2)c1: NO
Fc1cccc(-c2cncc3[nH]c(-c4n[nH]c5ncc(-c6cccnc6)cc45)cc23)c1: NO
CCC(=O)Nc1cncc(-c2cnc3[nH]nc(-c4nc5c(-c6cccs6)cncc5[nH]4)c3c2)c1: NO
O=C(CC1CCNCC1)Nc1cncc(-c2cc3c(-c4nc5c(-c6cccc(F)c6)ccnc5[nH]4)n[nH]c3cn2)c1: YES
Cc1n[nH]c2ccc(-c3cc(OC[C@H](N)Cc4ccccc4)cnn3)cc12: NO
CN(C)Cc1cncc(-c2ccc3[nH]nc(-c4cc5c(N6CCCCC6)cccc5[nH]4)c3c2)c1: NO
CN1CCC(Oc2ccc3[nH]c(-c4n[nH]c5ccc(-c6cnn(C)c6)cc45)nc3c2)CC1: YES
CC(C)CC(=O)Nc1cncc(-c2ccc3[nH]nc(-c4nc5c(-c6cccs6)cncc5[nH]4)c3c2)c1: NO
COc1cncc(C#Cc2c[nH]nc2C(=O)Nc2ccc(OCCN3CCCC3)nc2)c1: NO
c1cncc(-c2cc3c(-c4nc5c(-c6cccnc6)nccc5[nH]4)n[nH]c3cn2)c1: NO
COc1cccc(-c2nccc3[nH]c(-c4n[nH]c5ccc(-c6cccnc6)nc45)nc23)c1: NO
O=C(Nc1cncc(-c2ccc3[nH]nc(-c4nc5c(-c6ccc(Cl)s6)ccnc5[nH]4)c3n2)c1)C1CCC1: NO
